target: Serine/threonine-protein kinase Chk1 (Homo sapiens) (UniProt O14757); conditions: at 0.1 µM;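 also: reported figure is the mean percent inhibition of CHEK1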
Sequence (O14757 whole entry): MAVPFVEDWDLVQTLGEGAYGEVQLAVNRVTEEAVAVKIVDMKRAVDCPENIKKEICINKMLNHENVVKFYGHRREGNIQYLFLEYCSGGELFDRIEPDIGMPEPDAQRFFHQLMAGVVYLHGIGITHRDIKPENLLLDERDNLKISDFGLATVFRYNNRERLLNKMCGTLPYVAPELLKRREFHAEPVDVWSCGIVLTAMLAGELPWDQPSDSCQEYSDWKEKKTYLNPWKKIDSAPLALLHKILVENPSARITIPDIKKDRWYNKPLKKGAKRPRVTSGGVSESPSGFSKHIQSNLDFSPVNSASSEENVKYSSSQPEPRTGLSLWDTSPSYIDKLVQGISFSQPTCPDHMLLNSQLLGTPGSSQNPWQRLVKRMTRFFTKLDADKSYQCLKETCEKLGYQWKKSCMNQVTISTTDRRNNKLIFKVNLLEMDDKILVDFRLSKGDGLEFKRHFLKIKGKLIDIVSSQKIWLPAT
Reported inhibition values follow for various compounds
Assay Metric: inhibition (%)

Compound: Cn1c(-c2nonc2N)nc2cnccc21
Number: 1.55
//
Compound: O=C(O[C@H]1CN[C@H](C#Cc2cc3ncnc(Nc4ccc(OCc5cccc(F)c5)c(Cl)c4)c3s2)C1)N1CCOCC1
Number: -1.89
//
Compound: O=C1Nc2ccccc2/C1=C1\CCc2cc(O)ccc21
Number: -1.18
//
Compound: CNC(=O)c1ncccc1Nc1nc(Nc2cc3c(cc2OC)CCCN3C(=O)CN(C)C)nc2[nH]ccc12
Number: 3.13
//
Compound: CS(=O)(=O)Nc1ccc(-c2ccc3c(NC(=O)C4CC4)n[nH]c3c2)cc1
Number: 1.65
//
Compound: OCCCNc1nccc(-c2c(-c3ccc(F)cc3)nn3cc(C(F)(F)F)ccc23)n1
Number: -0.5
//
Compound: CC1=C(C(=O)Nc2ccc3[nH]ncc3c2)C(c2ccc(F)cc2)N=C(c2ccc(C(F)(F)F)nc2)N1 (stereo not drawn)
Number: 0.19
//
Compound: Cc1cc(O)cc(C)c1/C=C/c1cncc(C(N)=O)c1
Number: 2.8
